Cited source for all entries: patent US5847125A

This section presents compounds with their documented log10 Ki values.
Target: CCKA (Cavia porcellus, UniProt Q63931)
Construct: The pancreatata were removed from male guinea-pigs (200-300 g; Dunkin Hartley); from tissue; host or cells: guinea-pig pancreas membranes
Sequence (Q63931 whole entry): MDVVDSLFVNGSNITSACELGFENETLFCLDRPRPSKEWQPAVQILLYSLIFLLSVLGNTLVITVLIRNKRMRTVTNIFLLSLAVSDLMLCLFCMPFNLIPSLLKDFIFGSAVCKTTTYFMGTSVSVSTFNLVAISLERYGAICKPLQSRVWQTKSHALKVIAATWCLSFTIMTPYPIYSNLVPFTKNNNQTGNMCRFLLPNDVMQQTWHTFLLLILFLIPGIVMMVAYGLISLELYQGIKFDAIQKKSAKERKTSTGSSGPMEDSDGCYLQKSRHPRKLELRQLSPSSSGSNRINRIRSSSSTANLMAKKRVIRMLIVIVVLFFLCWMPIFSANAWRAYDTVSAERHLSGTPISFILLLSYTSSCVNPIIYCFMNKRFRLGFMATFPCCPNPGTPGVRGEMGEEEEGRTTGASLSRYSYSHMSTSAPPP
Assay: CCKA binding assay, pancreas membranes, [125I]-CCK8(S)
Parameters: species or system male guinea-pigs (Dunkin Hartley)
Conditions: guinea-pig pancreas membranes; [125I]-CCK8(S) 200 pM; 0.375 μM PD134,308; 150 minutes at 21°; non-specific binding 100 nM L-364,718; read-out: pKi CCKλ (converted)
# values: log10(Ki), units nM

Would you please look over these solved cases?
{"COMPOUND": "CCCCCN(CCCCC)C(=O)[C@H](CC(=O)O)NS(=O)(=O)c1ccc2ccccc2c1 [Example 1]", "MEASURED_VALUE": 2.40}
{"COMPOUND": "CCCCCN(CCCCC)C(=O)[C@H](CC(=O)O)NS(=O)(=O)c1cccc2ccccc12 [Example 21]", "MEASURED_VALUE": 3.30}
{"COMPOUND": "O=C(O)C[C@H](NS(=O)(=O)c1ccc2ccccc2c1)C(=O)NCCC1CCCCC1 [Example 11]", "MEASURED_VALUE": 2.20}
{"COMPOUND": "CCCCCNC(=O)[C@H](CC(=O)O)NS(=O)(=O)c1ccc2ccccc2c1 [Example 5]", "MEASURED_VALUE": 3.00}
{"COMPOUND": "CCCCN(CCCC)C(=O)[C@H](CC(=O)O)NS(=O)(=O)c1ccc2ccccc2c1 [Example 3]", "MEASURED_VALUE": 3.00}

Input: GET log10 Ki | system: CCKA (Cavia porcellus, UniProt Q63931) | item: O=C(O)C[C@H](NS(=O)(=O)c1ccc2ccccc2c1)C(=O)NCCC12CC3CC(CC(C3)C1)C2 [Example 12]
Output: 2.10

Input: GET log10 Ki | system: CCKA (Cavia porcellus, UniProt Q63931) | item: CCCCCCN(CCCCCC)C(=O)[C@H](CC(=O)O)NS(=O)(=O)c1ccc2ccccc2c1 [Example 4]
Output: 2.10

Input: GET log10 Ki | system: CCKA (Cavia porcellus, UniProt Q63931) | item: CCCCCN(CCCCC)C(=O)[C@H](CCC(=O)O)NS(=O)(=O)c1ccc2ccccc2c1 [Example 19]
Output: 3.20

Input: GET log10 Ki | system: CCKA (Cavia porcellus, UniProt Q63931) | item: O=C(O)C[C@H](NS(=O)(=O)c1ccc2ccccc2c1)C(=O)N1CC2CCC(CC2)C1 [Example 15]
Output: 4.00

Input: GET log10 Ki | system: CCKA (Cavia porcellus, UniProt Q63931) | item: CCCCCOC(=O)[C@H](CC(=O)O)NS(=O)(=O)c1ccc2ccccc2c1 [Example 20]
Output: 3.30
